Value source: patent US20250313563A1

- study-target: GSK3b (GST-full length GSK3b) (Homo sapiens (Human), UniProt P49841)
- Sequence (P49841 whole entry): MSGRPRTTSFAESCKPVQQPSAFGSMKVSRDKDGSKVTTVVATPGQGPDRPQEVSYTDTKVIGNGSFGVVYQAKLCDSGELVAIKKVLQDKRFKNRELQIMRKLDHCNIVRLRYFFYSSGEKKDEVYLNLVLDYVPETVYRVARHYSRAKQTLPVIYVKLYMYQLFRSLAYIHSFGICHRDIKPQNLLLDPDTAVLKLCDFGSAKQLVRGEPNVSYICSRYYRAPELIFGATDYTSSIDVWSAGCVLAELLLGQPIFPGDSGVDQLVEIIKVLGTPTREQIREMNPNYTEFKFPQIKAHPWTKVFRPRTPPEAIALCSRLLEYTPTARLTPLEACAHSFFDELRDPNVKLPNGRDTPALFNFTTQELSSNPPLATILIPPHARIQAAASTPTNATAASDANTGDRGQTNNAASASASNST
- test-description: GSK3b TR-FRET kinase assay
- Format: biochemical
- measurement-parameters: 1 nM GSK3b, 2 μM ATP, 30 minute preincubation; read-out: GSK3-B TR-FRET BIOCHEMICAL (TR-FRET); IC50
pIC50: −log10 of the molar value.
test-readout: pIC50

### Prompt Given the compound CC[C@]1(c2cccc(C(F)(F)F)c2)C2=C(Nc3n[nH]cc31)[C@H](C)N(Cc1ccccc1)C2=O , what is its reported pIC50?
### Response < 5.30

### Prompt Try this compound too: Cc1cccc(S(=O)(=O)N2CC[C@]3(C2)C2=C(CC(C)(C)CC2=O)Nc2n[nH]cc23)c1
### Response ≥ 7.00

### Prompt Try this compound too: CCC1(c2cccc(C(F)(F)F)c2)C2=C(CC(C)NC2=O)Nc2n[nH]cc21 (stereo not shown) [Compound 912096]
### Response 6.00 to 7.00

### Prompt Try this compound too: CC(=O)N1CC2(C1)CC1(CO2)C2=C(CC(C)(C)CC2=O)Nc2n[nH]cc21 (stereo not shown)
### Response ≥ 7.00

### Prompt Try this compound too: CC1(C)CC2=C(C(=O)N1)C1(CCN(S(=O)(=O)c3ccc(F)cc3)CC1)c1c[nH]nc1N2
### Response ≥ 7.00

### Prompt Try this compound too: CC1(C)CC(=O)C2=C(C1)Nc1n[nH]cc1[C@]21COC2(CN(C(=O)Cc3ccccc3)C2)C1
### Response 6.00 to 7.00

### Prompt Try this compound too: CC[C@]1(c2cccc(C(F)(F)F)c2)C2=C(CCN(c3ccccc3)C2=O)Nc2n[nH]cc21
### Response < 5.30
